These entries and their values trace back to the supplement of paper PMC10326909.

test: ESI positive response factor (isotope-corrected peak area per molar concentration) in SFC/ESI/HRMS (area units per M); higher = higher ionization efficiency; conditions: 0.175 µM;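 further: standards in acetonitrile/water run in triplicate on a zwitterionic HILIC column, CO2–methanol gradient containing 20 mmol/L ammonium acetate, postcolumn makeup flow, Orbitrap full-scan detection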
Task for the reader: assign each of the following compounds its reported ESI positive response factor.
Answers are plain numbers.

Hey, quick one: what's ESI positive response factor for each of these?
1. COc1nc(C)nc(NC(=O)NS(=O)(=O)c2ccccc2Cl)n1
2. NC(N)=Nc1nc(CSCCC(N)=NS(N)(=O)=O)cs1
3. CC(C)NCC(O)COc1ccc(C(=O)O)cc1 (stereo not given)

["5.05e+16", "3.25e+16", "1.64e+17"]

Hey, quick one: what's ESI positive response factor for each of these?
1. O=C1CCCN1
2. NC(=O)C1(N2CCCCC2)CCN(CCCC(=O)c2ccc(F)cc2)CC1

1: 8.26e+15; 2: 5.09e+17

---

experiment: ESI positive response factor (isotope-corrected peak area per molar concentration) in SFC/ESI/HRMS (area units per M); higher = higher ionization efficiency; details: 1.75 µM
Task for the reader: assign each of the following compounds its reported ESI positive response factor.
One number for each entry.

The examples below pair each entry with its known result.
CCOc1nc2cccc(C(=O)O)c2n1Cc1ccc(-c2ccccc2-c2nnn[nH]2)cc1 ... 8.46e+16
O=C1CCCN1 ... 8.7e+15
C1CN(CCOCCN2CCOCC2)CCO1 ... 3.43e+17
CC(=O)NCCCS(=O)(=O)O [Acamprosate] ... 3.25e+15
CC(=O)NCCCCC(N)C(=O)O (stereo not given) ... 9.24e+15

Hey, quick one: what's ESI positive response factor for each of these?
1. COC(=O)NS(=O)(=O)c1ccc(N)cc1
2. CN1C(C)(C)CC(O)CC1(C)C

1.43e+16
3.68e+17

---

Task for the reader: assign each of the following compounds its reported ESI positive response factor.
assay: ESI positive response factor (isotope-corrected peak area per molar concentration) in SFC/ESI/HRMS (area units per M); higher = higher ionization efficiency; details: 0.0175 µM
One number for each entry.

Nc1cnn(-c2ccccc2)c(=O)c1Cl ... 7.49e+16
CC1=C(C(=O)Nc2ccccc2)SCCO1 ... 7.6e+16
CC(C)NCC(O)COc1ccc(C(=O)O)cc1 (stereo not given) ... 1.43e+17
CCOC(=O)NCCOc1ccc(Oc2ccccc2)cc1 ... 5.41e+17
O=P(OC(CCl)CCl)(OC(CCl)CCl)OC(CCl)CCl ... 4.09e+17
NC(N)=NC(N)=NCCc1ccccc1 ... 2.9e+17
Nc1nc(N)c2nc(CO)cnc2n1 [2,4-Diamino-6-(hydroxymethyl)pteridine] ... 2.75e+16
CC1(C)CC(O)CC(C)(C)N1 ... 1.95e+17
C1CN(CCOCCN2CCOCC2)CCO1 ... 4.89e+17

ESI positive response factor for CC(C)NCC(O)c1ccc(NS(C)(=O)=O)cc1 (stereo not given) is 2.28e+17

---

assay: ESI positive response factor (isotope-corrected peak area per molar concentration) in SFC/ESI/HRMS (area units per M); higher = higher ionization efficiency; settings: 0.035 µM
endpoint.name: ESI positive response factor
Give bare numbers.

The examples below pair each entry with its known result.
O=P(OC(CCl)CCl)(OC(CCl)CCl)OC(CCl)CCl ... 4.02e+17
COCC(=O)N(c1c(C)cccc1C)N1CCOC1=O ... 1.43e+17
CN1CCN(C)C1=O ... 7.85e+16
Nc1nc(N)c2nc(CO)cnc2n1 [2,4-Diamino-6-(hydroxymethyl)pteridine] ... 4.33e+16

# evaluate next
ESI positive response factor for CC(C)NCC(O)c1ccc(NS(C)(=O)=O)cc1 (stereo not given) is 2.68e+17

---

test: ESI positive response factor (isotope-corrected peak area per molar concentration) in SFC/ESI/HRMS (area units per M); higher = higher ionization efficiency; conditions: 0.0175 µM
Task for the reader: assign each of the following molecules its reported ESI positive response factor.
Numbers only.

OCCN(CCO)CCO [Triethanolamine] ... 8.84e+16

Hey, quick one: what's ESI positive response factor for each of these?
1. CCOP(=O)(OCC)OC(=CCl)c1ccc(Cl)cc1Cl [Chlorfenvinphos]
2. CNC(=O)CSP(=O)(OC)OC [Omethoate]
3. Fc1ccc(Oc2ccnc3cc(Cl)cc(Cl)c23)cc1 [Quinoxyfen]
4. O=P(OCCCl)(OCCCl)OCCCl [Tris(2-chloroethyl) phosphate]
5. CC(C)NCC(O)COc1ccc(CC(N)=O)cc1 (stereo unspecified) [Atenolol]

["2.81e+17", "2.18e+16", "9.87e+17", "2.68e+18", "1.75e+17"]

---

Task for the reader: assign each of the following compounds its reported ESI positive response factor.
experiment: ESI positive response factor (isotope-corrected peak area per molar concentration) in SFC/ESI/HRMS (area units per M); higher = higher ionization efficiency; settings: 1.75 µM
Give bare numbers.

The examples below pair each entry with its known result.
Nc1ccnc(=O)[nH]1 [Cytosine] ... 3.05e+15
CC(=O)N1CC(O)C[C@H]1C(=O)O (stereo in doubt) [Trans-1-acetyl-4-hydroxy-L-prolin] ... 6.39e+15
N#CN=C(N)N [Dicyandiamide] ... 6.06e+15

Hey, quick one: what's ESI positive response factor for each of these?
1. O=S(=O)(O)c1ccc2nc(-c3ccccc3)[nH]c2c1 [2-Phenyl-5-benzimidazole]
2. CC(C)C[C@H](CN)CC(=O)O [Pregabalin]
3. OCCN1C[C@H](O)[C@@H](O)[C@H](O)[C@H]1CO [Miglitol]

["4.96e+15", "1.57e+16", "1.46e+16"]

ESI positive response factor for c1ccc(CC2=NCCN2)cc1 [2-Benzylimidazoline] is 4.96e+15

---

Task for the reader: assign each of the following compounds its reported ESI positive response factor.
test: ESI positive response factor (isotope-corrected peak area per molar concentration) in SFC/ESI/HRMS (area units per M); higher = higher ionization efficiency; settings: 0.0875 µM
Give bare numbers.

The examples below pair each entry with its known result.
CC1(C)CC(O)CC(C)(C)N1 [2,2,6,6-Tetramethyl-4-piperidinol] ... 1.53e+17
O=P(OCCCl)(OCCCl)OCCCl [Tris(2-chloroethyl) phosphate] ... 2.72e+18
O=C(O)C(c1ccccc1)C1CCCCN1 (stereo unspecified) [Ritalinic acid] ... 1.24e+17
COC(=O)NS(=O)(=O)c1ccc(N)cc1 [Asulam] ... 1.31e+16
CC(C)NCC(O)c1ccc(NS(C)(=O)=O)cc1 (stereo unspecified) [Sotalol] ... 2.59e+17
CN(C)C(=O)C(c1ccccc1)c1ccccc1 [Diphenamid] ... 1.09e+17

Hey, quick one: what's ESI positive response factor for each of these?
1. OCCN(CCO)CCO [Triethanolamine]
2. CON(C)C(=O)Nc1ccc(Br)c(Cl)c1 [Chlorbromuron]
3. O=P(OC(CCl)CCl)(OC(CCl)CCl)OC(CCl)CCl [TDCPP]
4. CN1CCN(C)C1=O [1,3-Dimethyl-2-imidazolidinone]
5. COP(=O)(OC)SCn1c(=O)oc2cc(Cl)cnc21 [Azamethiphos]
6. Fc1ccc(Oc2ccnc3cc(Cl)cc(Cl)c23)cc1 [Quinoxyfen]

8.78e+16
4.82e+16
3.57e+17
6.75e+16
6.44e+17
9.74e+17

Hey, quick one: what's ESI positive response factor for each of these?
1. C[N+](C)(C)CC(=O)O [Betaine]
2. N#CN=C(N)N [Dicyandiamide]
3. CN=C(NC#N)NCCSCc1nc[nH]c1C [Cimetidine]
4. Nc1cnn(-c2ccccc2)c(=O)c1Cl [Chloridazon]

1. 1.14e+17
2. 4.26e+15
3. 8.81e+16
4. 8.99e+16

---

test: ESI positive response factor (isotope-corrected peak area per molar concentration) in SFC/ESI/HRMS (area units per M); higher = higher ionization efficiency; settings: 0.175 µM
endpoint.name: ESI positive response factor
Numbers only.

The examples below pair each entry with its known result.
CCN[C@H]1C[C@H](C)S(=O)(=O)c2sc(S(N)(=O)=O)cc21 [Dorzolamide] ... 1.22e+16
COP(=O)(OC)SCn1c(=O)oc2cc(Cl)cnc21 ... 6.11e+17

Hey, quick one: what's ESI positive response factor for each of these?
1. CN1C(C)(C)CC(O)CC1(C)C
2. C[N+](C)(C)CCCl [Chlormequate]
3. CNC(=O)CSP(=O)(OC)OC [Omethoate]

4.63e+17
1.76e+17
3.18e+16

---

experiment: ESI positive response factor (isotope-corrected peak area per molar concentration) in SFC/ESI/HRMS (area units per M); higher = higher ionization efficiency; conditions: 0.875 µM
endpoint.name: ESI positive response factor
One number for each entry.

C1CN(CCOCCN2CCOCC2)CCO1 ... 4.13e+17
CCOc1nc2cccc(C(=O)O)c2n1Cc1ccc(-c2ccccc2-c2nnn[nH]2)cc1 ... 9.01e+16
COc1cc(Cc2cnc(N)nc2N)cc(OC)c1OC ... 3.33e+17
O=C1CCCN1 ... 1.07e+16
NC(N)=Nc1nc(CSCCC(N)=NS(N)(=O)=O)cs1 ... 3.76e+16
CCN[C@H]1C[C@H](C)S(=O)(=O)c2sc(S(N)(=O)=O)cc21 [Dorzolamide] ... 1.24e+16

Hey, quick one: what's ESI positive response factor for each of these?
1. Cn1c(N)c(NC=O)c(=O)n(C)c1=O
2. CN1C(C)(C)CC(O)CC1(C)C
3. CCN(CC)C(=O)c1cccc(C)c1
4. O=S(=O)(O)c1ccc2nc(-c3ccccc3)[nH]c2c1
5. Cc1cc2nc3c(=O)[nH]c(=O)nc-3n(CC(O)C(O)C(O)CO)c2cc1C (stereo unspecified)

1: 2.09e+15; 2: 4.18e+17; 3: 4.86e+17; 4: 4.7e+15; 5: 3.41e+15
